For each of the compounds below, state its normalized growth.
Experiment: chemical genetic growth profiling, strain panel (AID 1159580);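 note: tested at 20 µM; growth read once vehicle control cultures reached saturation at 30 °C; 1 = growth at the plate median or of vehicle wells; lower values mean less growth of the strain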
Details: S. cerevisiae deletion strains, growth OD, locus YER110C, stronger effect = lower value
The campaign covered roughly 5,500 compounds. About 2,000 (36%) were called active. Not shown: some 18% with an inconclusive outcome. The list shows a part of the results.
Numbers only.

// below: answered compounds
>  <COMPOUND>
C[C@@H]1CC[C@@]2(OC1)OC1C(O)C3C4CC[C@H]5C[C@H](O[C@@H]6O[C@H](CO)[C@H](O[C@@H]7O[C@H](CO)[C@@H](O)[C@H](O[C@@H]8OC[C@@H](O)[C@H](O)[C@H]8O)[C@H]7O[C@@H]7O[C@H](CO)[C@H](O)[C@H](O[C@@H]8O[C@H](CO)[C@@H](O)[C@H](O)[C@H]8O)[C@H]7O)[C@H](O)[C@H]6O)[C@H](O)C[C@]5(C)C4CC[C@]3(C)C1[C@@H]2C (some centres undefined)

>  <normalized growth>
0.0702

$$$$
>  <COMPOUND>
COC(=O)C1=C(C)NC(C)=C(C(=O)OCCN(C)Cc2ccccc2)C1c1cccc([N+](=O)[O-])c1 (centres undefined)

>  <normalized growth>
0.976

$$$$
>  <COMPOUND>
COc1ccc(-c2coc3cc(O)cc(O)c3c2=O)cc1

>  <normalized growth>
0.539

$$$$
>  <COMPOUND>
COc1ccc(-c2cc(=O)c3c(OC)cccc3o2)cc1

>  <normalized growth>
1.02

$$$$
>  <COMPOUND>
CN(C)CCC=C1c2ccccc2C=Cc2ccccc21

>  <normalized growth>
0.984

$$$$

Provide the reported normalized growth of each entry below, same order.
1. O=C(O)/C=C(\CC(=O)O)C(=O)O
2. CC(=O)O[C@H]1C[C@H](O[C@H]2[C@@H](O)C[C@H](O[C@H]3[C@@H](O)C[C@H](O[C@H]4CC[C@@]5(C)C(CCC6C5C[C@@H](O)[C@]5(C)[C@@H](C7=CC(=O)OC7)CC[C@]65O)C4)O[C@@H]3C)O[C@@H]2C)O[C@H](C)[C@H]1O[C@@H]1O[C@H](CO)[C@@H](O)[C@H](O)[C@H]1O (some centres undefined)
3. COc1ccc(-c2cc(=O)c3ccccc3o2)cc1OC
4. CC1(C)O[C@@H]2CC3C4C[C@H](F)C5=CC(=O)C=CC5(C)C4C(O)CC3(C)[C@]2(C(=O)CO)O1 (some centres undefined)
5. COCCOC(=O)C1=C(C)NC(C)=C(C(=O)OC(C)C)C1c1cccc([N+](=O)[O-])c1 (centres undefined)
6. COc1ccc(-c2cc(=O)c3c(OC(C)=O)cc(OC(C)=O)cc3o2)cc1
7. CC(=O)O[C@@H]1CC2C(C)(C)CCC(=O)[C@]2(C)C2CC[C@@]3(C)[C@H](c4ccoc4)OC(=O)C4OC43[C@@]21C (some centres undefined)
8. CC(=O)O[C@@H]1CC2C(C)(C)[C@H](O)C[C@H](O)[C@]2(C)C2CC[C@@]3(C)[C@H](c4ccoc4)OC(=O)[C@H]4O[C@]43[C@@]21C (some centres undefined)

stdout:
1: 0.982; 2: 0.984; 3: 1.04; 4: 0.988; 5: 1.02; 6: 0.95; 7: 0.978; 8: 0.978

stdin: Please look up its normalized growth: CC(=O)Oc1cc(-c2coc3cc(OC(C)=O)c(OC(C)=O)c(OC(C)=O)c3c2=O)cc(OC(C)=O)c1OC(C)=O
stdout: 1.05
